# System: DLD1
# METHOD NOTES: cell viability (CellTiter-Glo) relative to plate median (fraction of plate median); higher = more viable cells
# CONDITION PARAMETERS: 5 µM; treatment time 24 h; reporter: 7TFP
READOUT KIND: cell viability
Give bare numbers.

// below: answered compounds
O=C(O)CN1C(=O)c2cccc3cccc(c23)C1=O: 0.996
O=c1n(CCCN2CCN(c3cccc(Cl)c3)CC2)nc2ccccn12: 1
CC1=C(C(=O)O)N2C(=O)[C@@H](NC(=O)[C@H](N)C3=CCC=CC3)[C@H]2SC1: 0.978

# map each compound to its cell viability
1. COc1c2c(cc3occ(-c4ccc5c(c4)OCO5)c(=O)c13)OC(C)(C)C=C2
2. Nc1ccn([C@@H]2O[C@H](CO)[C@@H](O)[C@H]2O)c(=O)n1
3. CC(=O)OCC(=O)[C@H]1CC[C@H]2[C@@H]3CC=C4C[C@@H](O)CC[C@]4(C)[C@H]3CC[C@]12C
4. Nc1ccc(/N=N/c2ccccc2)c(N)n1
5. CC(=O)O[C@@H]1CO[C@H]2O[C@H]3[C@@H](C(C=O)=C[C@H](O)[C@@H]4C5=C(C(C)C)CC[C@]5(C)CC[C@@]34C)[C@@]2(O)C1=O [Striatal B]
6. CC1(C)S[C@@H]2[C@H](NC(=O)[C@H](N)c3ccc(O)cc3)C(=O)N2[C@H]1C(=O)O

(A)
1. 0.973
2. 0.977
3. 1.04
4. 1.1
5. 1
6. 0.928

----------
What cell viability was measured for each of the following?
# Tested on: DLD1
# METHOD NOTES: cell viability (CellTiter-Glo) relative to plate median (fraction of plate median); higher = more viable cells
# CONDITION PARAMETERS: 5 µM; treatment time 24 h; reporter: 7TFP
Answers are plain numbers.

NCCCC(O)(P(=O)(O)O)P(=O)(O)O: 0.98
NCCCS(=O)(=O)O: 0.999
O=C(O)c1cc(/N=N/c2ccc(S(=O)(=O)Nc3ccccn3)cc2)ccc1O: 0.992

Required: cell viability, one value per compound below.
1. C=C1c2c(Cl)ccc(O)c2C(=O)C2=C(O)[C@]3(O)C(=O)C(C(N)=O)=C(O)[C@@H](N(C)C)[C@@H]3[C@@H](O)[C@H]12.O=C(O)c1cc(S(=O)(=O)O)ccc1O
2. C[C@H]1COc2c(N3CCN(C)CC3)c(F)cc3c(=O)c(C(=O)O)cn1c23
3. CC1(C)Oc2ccc3ccc(=O)oc3c2CC1O (stereo not given)
4. CO/N=C(\C(=O)N[C@@H]1C(=O)N2C(C(=O)OC(C)OC(C)=O)=C(COC(N)=O)CS[C@H]12)c1ccco1 (stereo not given in full)
5. C[N+](C)(C)CCO.[Cl-]
6. CC1CC(OC(=O)C(O)c2ccccc2)CC(C)(C)N1C (stereo not given)

(A)
1. 1.05
2. 0.891
3. 0.993
4. 1.03
5. 0.975
6. 1

(Q) Report cell viability for O=c1[nH]cnc2c1ncn2[C@@H]1O[C@H](CO)[C@@H](O)[C@H]1O please.
(A) 1.09

----------
Exercise: state measured cell viability for each of the compounds provided.
# Tested on: DLD1
# METHOD NOTES: cell viability (CellTiter-Glo) relative to plate median (fraction of plate median); higher = more viable cells
# CONDITION PARAMETERS: 5 µM; treatment time 24 h; reporter: 7TFP
Answers are plain numbers.

Study these solved cases before continuing.
CCc1cn([C@H]2C[C@H](O)[C@@H](CO)O2)c(=O)[nH]c1=O: 0.989
CCCn1c(=O)c2[nH]c(C3CCCC3)nc2n(CCC)c1=O: 0.998

I'm hoping you can list cell viability for every compound here, please.
1. C[C@@H]1CC(=O)O[C@H](C)Cc2cc(O)cc(O)c2C(=O)O[C@H](C)CC(=O)O[C@H](C)Cc2cc(O)cc(O)c2C(=O)O[C@H](C)CC(=O)O1
2. O=C1OCC(Cc2ccccc2)C1c1ccccc1 (centres undefined) [3-Benzyl-2-phenyl-butyrolactone]

(A)
[0.982, 1.07]

----------
# System: SW480
# METHOD NOTES: cell viability (CellTiter-Glo) relative to plate median (fraction of plate median); higher = more viable cells
# CONDITION PARAMETERS: 5 µM; treatment time 24 h; reporter: 7TFP
Would you kindly list cell viability for each of these molecules?
Answers are plain numbers.

Illustrative cases are given below, each with its answer.
O=c1[nH]cc(F)c(=O)[nH]1: 1.11
O=c1cc(-c2ccccc2)oc2cc(O)c(O)cc12: 1.03
CCCCCC(=O)O[C@]1(C(C)=O)CC[C@H]2[C@@H]3CCC4=CC(=O)CC[C@]4(C)[C@H]3CC[C@@]21C: 0.972
Cc1cc(=O)c2c(O)cc(O)c(C)c2o1: 0.91
O=C1CN(/N=C/c2ccc([N+](=O)[O-])o2)C(=O)N1: 0.949

Hey, can you go through the list below and give me cell viability for every item?
1. CC(=O)N1CCCC(N)C1=O (stereo not given) [N-Acetyl-3-amino-2-piperidinon]
2. COc1ccc(CCC(=O)c2c(O)cc(O[C@@H]3O[C@H](CO)[C@@H](O)[C@H](O)[C@H]3O[C@@H]3O[C@@H](C)[C@H](O)[C@@H](O)[C@H]3O)cc2O)cc1O
3. COc1ccc2c(c1)OC/C(=C/c1ccc(OC)c(OC)c1)C2=O

(A)
0.946
0.975
0.966

Give cell viability for all molecules that follow.
1. O=C1c2ccccc2C(=O)C1c1ccccc1
2. Cc1c(NC(C)C)c(=O)n(-c2ccccc2)n1C

(A)
1. 1.02
2. 1.03

----------
# System: SW480
# METHOD NOTES: cell viability (CellTiter-Glo) relative to plate median (fraction of plate median); higher = more viable cells
# CONDITION PARAMETERS: 5 µM; treatment time 24 h; reporter: 7TFP
Hi! Could you tag entries with cell viability below 1 as YES, and those at or above as NO? Much appreciated.

Example results:
CC(=O)OCC(=O)[C@@]1(O)CC[C@H]2[C@@H]3CC[C@@H]4C[C@H](O)CC[C@]4(C)[C@H]3C(=O)C[C@@]21C: YES
CC(C)CCCCCCCCC1CC(=O)NC(CCC(=O)O)C(=O)NC(CC(C)C)C(=O)NC(CC(C)C)C(=O)NC(C(C)C)C(=O)NC(CC(=O)O)C(=O)NC(CC(C)C)C(=O)NC(CC(C)C)C(=O)O1 (centres undefined): YES
Cc1c(C)c2c(c(C)c1O)CCC(C)(COc1ccc(CC3SC(=O)NC3=O)cc1)O2 (centres undefined): NO

Okay, now this molecule:
(Q) Does the reported cell viability of the following molecule sit strictly below 1? C#CCN(C)Cc1ccccc1
(A) YES

----------
For each entry below, report its cell viability value.
# Test system: SW480
# METHOD NOTES: cell viability (CellTiter-Glo) relative to plate median (fraction of plate median); higher = more viable cells
# CONDITION PARAMETERS: 5 µM; treatment time 24 h; reporter: 7TFP
Answers are plain numbers.

Example cases with answers are listed next.
CC1(O)CC2C(CC1O)C2(C)C (stereo unspecified): 0.953
CCCCc1nc(Cl)c(CO)n1Cc1ccc(-c2ccccc2-c2nnn[nH]2)cc1: 1.02
COc1ccc2cc([C@H](C)CO)ccc2c1: 0.938
CC(=O)OCC1=C(C(=O)O)N2C(=O)[C@@H](NC(=O)CSc3ccncc3)[C@H]2SC1: 1.14

// for each molecule in input: emit cell viability
1. C/N=C(/NC#N)NCCSCc1csc(NC(=N)N)n1
2. O=c1ccc2ccc(O)cc2o1

(A)
1: 1.01; 2: 1.03

----------
# Tested on: DLD1
# METHOD NOTES: cell viability (CellTiter-Glo) relative to plate median (fraction of plate median); higher = more viable cells
# CONDITION PARAMETERS: 5 µM; treatment time 24 h; reporter: 7TFP
Provide the reported cell viability of each item.

CCN(Cc1ccncc1)C(=O)C(CO)c1ccccc1 (stereo not given): 0.992
CC1=C(/C=C/C(C)=C/C=C/C(C)=C/C=C/C=C(C)/C=C/C=C(C)/C=C/C(=O)[C@]2(C)C[C@@H](O)CC2(C)C)C(C)(C)C[C@H](O)C1: 0.98
Nc1ncnc2c1ncn2[C@@H]1O[C@H](CO)[C@@H](O)[C@@H]1O: 0.974

Below is a list of compounds. For each, state its recorded cell viability.
1. O=c1c(O)c(-c2ccc(O)cc2)oc2ccccc12
2. Cc1c(C(=O)O)c(O)cc2c1C(=O)c1c(O)c([C@@H]3O[C@H](CO)[C@@H](O)[C@H](O)[C@H]3O)c(O)c(O)c1C2=O
3. COc1ccc(-c2coc3c(OC)c(OC)cc(O)c3c2=O)cc1
4. CC(=O)NS(=O)(=O)c1ccc(N)cc1
5. Cc1ccccc1N1C(=O)c2cc(S(N)(=O)=O)c(Cl)cc2NC1C (stereo not given)
6. N[C@@H](Cc1c[nH]c2ccccc12)C(=O)O
7. O=C(O)CCCCCCCCCCCC[C@@H]1C=CCC1

(A)
[0.975, 0.97, 1.01, 1.07, 1.06, 1.07, 1]
